Data origin: patent US20220380463A1

// values below are reported MFI pH 7.4
Biological target: T1, human CD3 on CD3+ Jurkat cells (human, UniProt P07766 23-207)
T1 construct: whole, on cells; Native CD3 complex on cells; the other CD3 chains are not specified for this assay; also called Human CD3+ Jurkat
T1 sequence (P07766 23-207): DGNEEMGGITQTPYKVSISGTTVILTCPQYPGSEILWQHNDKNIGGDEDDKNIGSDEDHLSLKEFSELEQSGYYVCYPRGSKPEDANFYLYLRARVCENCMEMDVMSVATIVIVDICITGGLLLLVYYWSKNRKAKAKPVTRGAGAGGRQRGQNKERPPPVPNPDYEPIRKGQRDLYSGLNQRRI
Test: flow cytometry, 100 nM IgG on CD3+ Jurkat cells, pH 7.4
Report as a plain number; the unit MFI is understood.

Summary for this binder, SAD10320_P02_B06 (ADI-48653) (antibody, V domains shown, IgG; also called Ab83) VH: QVQLVQSGAEVKKPGASVKVSCKASGFNIKDYYMHWVRQAPGQRLEWMGWIDLENANTIYDAKFQGRVTITRDTSASTAYMELSSLRSEDTAVYYCARDAYGHWFYDVWGQGTLVTVSS VL: DIVMTQSPDSLAVSLGERATINCKSSQSLLNARTGKNYLAWYQQKPGQPPKLLIYWASTRESGVPDRFSGSGSGTDFTLTISSLQAEDVAVYYCKQSYHHRTFGGGTKVEIK : MFI pH 7.4 is 1030

Summary for this binder, SAD10319_P02_A05 (ADI-48629) (antibody, V domains shown, IgG; also called Ab255) VH: QVQLVQSGAEVKKPGASVKVSCKASGYTFDSYAMHWVRQAPGQRLEWMGWINPNTGATTYSQKFQGRVTITRDTSASTAYMELSSLRSEDTAVYYCARDHYGHYFYDVWGQGTLVTVSS VL: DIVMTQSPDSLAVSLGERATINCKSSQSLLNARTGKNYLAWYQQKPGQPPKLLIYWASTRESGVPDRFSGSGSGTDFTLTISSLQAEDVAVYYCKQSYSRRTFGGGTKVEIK : MFI pH 7.4 is 499

Summary for this binder, SAD10320_P02_D05 (ADI-48650) (antibody, V domains shown, IgG; also called Ab77) VH: QVQLVQSGAEVKKPGASVKVSCKASGFNIKDYYMHWVRQAPGQRLEWMGWIDLENANTIYDAKFQGRVTITRDTSASTAYMELSSLRSEDTAVYYCARDATHRYFYDVWGQGTLVTVSS VL: DIVMTQSPDSLAVSLGERATINCKSSQSLLNARTGKNYLAWYQQKPGQPPKLLIYWASTRESGVPDRFSGSGSGTDFTLTISSLQAEDVAVYYCKQSHTRRTFGGGTKVEI : MFI pH 7.4 is 5430
